Assay: Lipophilicity, log D of the compound
Assay type: physicochemical
Details: octanol/water
Below is a list of entries, each paired with its recorded logD value.
Answer as a number with no unit attached.

Look over these answered cases.
>  <compound>
COc1cccc(-c2c(C)n(Cc3c(F)cccc3C(F)(F)F)c(=O)n(C[C@H](NCCCC(=O)[O-])c3ccccc3)c2=O)c1F.[Na+] [ELAGOLIX SODIUM]

>  <measurement>
2

$$$$
>  <compound>
COc1cccc(-c2c(C)n(Cc3c(F)cccc3F)c(=O)n(C[C@H](NCCCC(=O)O)c3ccccc3)c2=O)c1F

>  <measurement>
0.2

$$$$

Next:
Inquiry: Item COc1cccc(-c2c(C)n(Cc3c(F)cccc3F)c(=O)n(C[C@H](N)c3ccccc3)c2=O)c1F has what recorded logD?
Reply text: 1.8
